System under test: EGFR L858R (Homo sapiens, UniProt P00533, L858R)
Sequence (P00533 25-1210 L858R): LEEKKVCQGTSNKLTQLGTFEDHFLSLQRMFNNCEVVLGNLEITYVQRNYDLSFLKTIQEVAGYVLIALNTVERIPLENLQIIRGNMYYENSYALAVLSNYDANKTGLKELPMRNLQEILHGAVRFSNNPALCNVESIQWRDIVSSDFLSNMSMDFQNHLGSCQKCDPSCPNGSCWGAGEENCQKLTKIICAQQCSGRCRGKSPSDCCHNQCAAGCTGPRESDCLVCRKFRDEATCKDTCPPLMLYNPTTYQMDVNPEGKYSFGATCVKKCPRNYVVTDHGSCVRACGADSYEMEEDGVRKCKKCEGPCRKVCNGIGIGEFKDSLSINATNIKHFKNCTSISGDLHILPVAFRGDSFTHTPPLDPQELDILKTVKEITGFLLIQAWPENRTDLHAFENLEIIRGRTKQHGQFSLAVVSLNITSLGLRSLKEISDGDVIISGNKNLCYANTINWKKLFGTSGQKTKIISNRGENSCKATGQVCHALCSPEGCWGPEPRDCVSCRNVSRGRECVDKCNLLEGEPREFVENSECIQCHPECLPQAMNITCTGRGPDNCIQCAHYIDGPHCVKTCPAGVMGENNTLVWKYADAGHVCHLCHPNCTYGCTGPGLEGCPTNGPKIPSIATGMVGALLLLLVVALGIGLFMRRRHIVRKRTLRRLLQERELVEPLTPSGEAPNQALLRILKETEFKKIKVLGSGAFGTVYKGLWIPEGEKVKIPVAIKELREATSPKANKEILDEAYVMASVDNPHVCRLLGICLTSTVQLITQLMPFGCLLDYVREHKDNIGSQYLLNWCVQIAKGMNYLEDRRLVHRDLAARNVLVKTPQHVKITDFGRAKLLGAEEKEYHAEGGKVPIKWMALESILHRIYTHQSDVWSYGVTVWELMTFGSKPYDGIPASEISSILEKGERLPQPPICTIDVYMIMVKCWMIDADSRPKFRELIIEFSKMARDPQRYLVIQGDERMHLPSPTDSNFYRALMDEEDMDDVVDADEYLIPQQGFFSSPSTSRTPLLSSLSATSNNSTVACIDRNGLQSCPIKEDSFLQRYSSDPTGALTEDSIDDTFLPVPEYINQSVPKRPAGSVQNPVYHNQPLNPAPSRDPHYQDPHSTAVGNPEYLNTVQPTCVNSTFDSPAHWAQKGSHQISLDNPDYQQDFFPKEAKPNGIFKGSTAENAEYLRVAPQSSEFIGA
Assay procedure: EGFR degradation, Total EGFR (L858R-specific) HTRF, NCI-H3255
Assay type: cell-based
Parameters: NCI-H3255 (harboring EGFR heterozygous L858R mutation); host or cells: NCI-H3255
Condition info: Table 9A; NCI-H3255 cells, 6 hours, Total EGFR HTRF; read-out: H3255 EGFR DC50
Assay readout: DC50

Below, 2 compounds whose answers are already recorded.
Compound: O=C1CC[C@H](Nc2ccc(C3CCN(CC(=O)N4CCC(c5ccc(-c6cc(F)c7c(c6)C(=O)N(C(C(=O)Nc6nccs6)c6ncn8c6CCC8)C7)cc5)CC4)CC3)cc2)C(=O)N1 (stereo partly drawn) [Compound 22]
Assay readout: DC50
Obs value: < 50 nM
//
Compound: N#Cc1cc(NC2CCC(=O)NC2=O)ccc1C1CCN(CC(=O)N2CCC(Oc3ccc(-c4cc(F)c5c(c4)C(=O)N(C(C(=O)Nc4nccs4)c4ncn6c4CCC6)C5)cc3)CC2)CC1 (stereo not drawn) [Compound 37]
Assay readout: DC50
Obs value: < 50 nM

Here is another compound to look at.
The compound listed as N#Cc1cc(NC2CCC(=O)NC2=O)ccc1C1CCN(CC(=O)N2CCC(c3ccc(-c4cc(F)c5c(c4)C(=O)N(C(C(=O)Nc4nccs4)c4ncn6c4CCC6)C5)cc3)CC2)CC1 (stereo not drawn) [Compound 25] has a reported DC50 of < 50 nM
